Biological target: human ether-à-go-go-related gene (hERG) potassium channel (human);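 further: peak tail current of the secondary pulse compared with the same well before compound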
Sequence (Q12809 whole entry, looked up): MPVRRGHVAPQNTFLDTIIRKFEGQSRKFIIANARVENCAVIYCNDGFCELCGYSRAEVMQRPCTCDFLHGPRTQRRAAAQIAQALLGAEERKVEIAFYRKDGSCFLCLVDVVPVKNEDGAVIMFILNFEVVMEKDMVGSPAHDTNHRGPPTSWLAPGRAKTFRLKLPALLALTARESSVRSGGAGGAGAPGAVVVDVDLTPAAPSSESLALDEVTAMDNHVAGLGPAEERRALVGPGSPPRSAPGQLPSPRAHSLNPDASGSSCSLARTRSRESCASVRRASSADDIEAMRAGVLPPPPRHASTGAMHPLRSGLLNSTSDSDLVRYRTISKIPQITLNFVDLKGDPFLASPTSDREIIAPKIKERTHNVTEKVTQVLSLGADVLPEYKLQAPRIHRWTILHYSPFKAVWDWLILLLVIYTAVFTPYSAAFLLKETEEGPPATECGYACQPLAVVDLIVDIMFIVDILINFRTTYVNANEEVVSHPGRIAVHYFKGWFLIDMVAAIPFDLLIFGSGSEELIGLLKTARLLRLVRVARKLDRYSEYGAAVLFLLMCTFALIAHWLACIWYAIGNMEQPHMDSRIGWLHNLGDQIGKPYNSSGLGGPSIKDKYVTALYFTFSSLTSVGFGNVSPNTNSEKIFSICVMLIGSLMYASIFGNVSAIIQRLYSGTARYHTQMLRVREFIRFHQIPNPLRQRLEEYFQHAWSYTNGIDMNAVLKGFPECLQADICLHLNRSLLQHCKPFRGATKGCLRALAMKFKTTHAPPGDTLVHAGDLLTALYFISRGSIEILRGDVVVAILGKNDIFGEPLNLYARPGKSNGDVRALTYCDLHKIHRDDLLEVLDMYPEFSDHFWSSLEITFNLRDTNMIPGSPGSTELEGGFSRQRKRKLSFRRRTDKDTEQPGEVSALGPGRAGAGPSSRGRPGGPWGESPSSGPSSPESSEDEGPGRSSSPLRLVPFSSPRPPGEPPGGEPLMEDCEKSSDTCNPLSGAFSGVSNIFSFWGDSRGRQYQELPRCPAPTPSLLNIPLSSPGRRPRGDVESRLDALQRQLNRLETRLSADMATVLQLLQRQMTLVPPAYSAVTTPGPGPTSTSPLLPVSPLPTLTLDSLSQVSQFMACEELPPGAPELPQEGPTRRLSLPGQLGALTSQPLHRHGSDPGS
Assay: primary screen, population patch clamp on CHO cells stably expressing hERG; higher = less effect of the substance
Screen size: about 310,000 compounds; about 14,000 (4.5%) showed an effect of 50% or more. The effect is printed as a negative number. This is one part of a sample in which strong results are shown more often than they occur.
EXPERIMENTAL_READOUT: hERG current change (%, negative = inhibition) at 10uM (%)
// units = %; emit number, no label

For orientation, consider the following solved cases.
O=C(NCCNc1ccc([N+](=O)[O-])cc1)c1ccco1 ... -23.7
Cc1ccc(CNC(=O)CCCNC(=O)c2ccc(Cl)cc2)n1C ... 2.05
Cc1ccc(C)c(N2CCN(C(=O)C3CCN(S(=O)(=O)c4cccc5nsnc45)CC3)CC2)c1 ... -8.49
Cc1ccc(NC2(C(F)(F)F)N=C(c3ccccc3)NC2=O)nc1 (centres unmarked) ... 18.4

Could you now look at the following compound, please?
Would you kindly share the measured hERG current change (%, negative = inhibition) at 10uM for Cc1cc(NC(=O)Nc2ccc(OCc3ccccc3)cc2)n(C)n1 ?
23.8
